# pKd values compiled below
- target.entity: T1, rhesus serum albumin (rhesus, UniProt Q28522 17-600)
- T1 construct: also called RhSA
- measurement.protocol: SPR, single cycle kinetics, pH 7.4
Lab note — pKd values are minus log10 of concentrations in M.

M75-H1 (VHH) VHH: EVQLVESGGGLVQPGGSLRLSCAASGRTFDNYVMAWFRQAPGKGLEFVSSISGSGSITNYANSVKDRFTISRDNSKNTLYLQMNSLRAEDTAVYYCAAGSRRTYYREPKFYPSWGQGTLVTVSS	8.21
Rh34-H5 (VHH) VHH: QVQLVESGGGLVQPGGSLRLSCAASGRTISLYAVGWFRRAPGKEREFVAAISWTDSSTYYADSVKGRFTISRDNAKNTVYLQMNSLRAEDTAVYYCAADVSIRGLQKYEYDYWGQGTLVTVS	6.23
Rh46-H2 (VHH) VHH: EVQLVESGGGLVQPGGSLRLSCAASTRTFSSYIMGWFRQAPGKERELVSAISWSGRMTHYADSVKGRFTISRDNSKNTLYLQMNSLRAEDTAVYYCAADRTTAWGAPRSQYDSWGQGTLVTVS	6.34

I have this binder here, Rh34-H2 (VHH) VHH: EVQLVESGGGLVQPGGSLRLSCAASGRTISLYAVGWFRQAPGKEREFVSAISWTDSSTYYADSVKGRFTISRDNSKNTLYLQMNSLRAEDTAVYYCAADVSIRGLQKYEYDYWGQGTLVTVS , and I need its recorded pKd.
5.83
